Field: Yield (BMP-12 recovered from resin). Provide a value for each of the substances that follow.
Molecular target: BMP-12 (Homo sapiens)
Sequence (Q7Z4P5 322-450): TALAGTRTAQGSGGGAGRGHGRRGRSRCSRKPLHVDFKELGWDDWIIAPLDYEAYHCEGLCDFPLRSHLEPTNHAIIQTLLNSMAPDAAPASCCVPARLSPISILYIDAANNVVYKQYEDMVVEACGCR
Test: Filter-plate binding and elution of BMP-12 on peptide-coupled affinity resins
Conditions: loaded in condition 3: 25 mM Na Acetate pH 5.0
Method: The coupled resins, plus an unconjugated resin for use as a control, were suspended in 16% ethanol, 150 mM NaCl, and 20 mM Tris buffer at pH 7.5 at a 25% v/v ratio (e.g., 25% ethanol, 75% Tris buffer). […] The protein concentration in the filtrate, or flow-through, was calculated as (A280-A320)/1.3. […] The protein concentration was measured in the new filtrate as described above. […]
No end group written: not given here.
// note: answer is a bare numeric in %

Reported Yield (BMP-12 recovered from resin) of Ac-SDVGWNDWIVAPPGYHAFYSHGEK [Peptide 751] : 100

Yield (BMP-12 recovered from resin) recorded for this substance, Ac-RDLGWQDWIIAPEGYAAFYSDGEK [Peptide 748] , is 89

get_value(item= Ac-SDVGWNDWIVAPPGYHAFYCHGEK [Peptide 750] , readout=Yield (BMP-12 recovered from resin)) returns 96

Measured Yield (BMP-12 recovered from resin), Ac-VAPPGYHAFYSHGEK [Peptide 745] : 105

In plain terms, Ac-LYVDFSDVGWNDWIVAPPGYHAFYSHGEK [Peptide 747] has a documented Yield (BMP-12 recovered from resin) of 90

Recorded result, Ac-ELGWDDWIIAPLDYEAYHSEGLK [Peptide 749] , Yield (BMP-12 recovered from resin): 90

Input Ac-LYV**SDVGWNDWIVK (Ac-LYVSDVGWNDWIVK; not fully specified (residue 3); printed as Ac-LYV**SDVGWNDWIVK) [Peptide 746] . Output Yield (BMP-12 recovered from resin): 97

// data source = patent US7754689B2
